Listing of entries alongside the reported inhibition.
test: viability loss in Ba/F3 EpoR-JAK2V617F cells – cell-based, luminescence, JAK2V617F inhibitor project, primary screen (AID 1446);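 further: cytokine-independent growth of Ba/F3 cells driven by EpoR plus mutant JAK2; 0% = DMSO-treated cells and 100% = JAK inhibitor I control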
assay_context: ATP luminescence, at 5.6 µM, hits give high values
The whole screen tested about 220,000 compounds, of which about 2,400 (1.1%) were called active. Many of the other results were omitted from the sample, so actives are more common in it than they were.
Report the figure in % without appending any unit label.

Recorded inhibition, per entry:
CC(C)(C)c1cc(P(=O)(c2ccccc2)c2ccccc2)ccc1O : -0.07
COc1ccc2nc(SCc3ccccc3)nc(C)c2c1 : 2.96
Cc1c(/C=N\NC(=O)c2cc3ccccc3o2)c2ccccc2n1C : 34.8
Cc1c(CCC(=O)O)c(=O)oc2cc3occ(-c4ccccc4)c3cc12 : 2.82
CCCOC(=O)c1[nH]c2c(c1C)C(=O)CC(c1cccs1)C2 (stereo unspecified) : 74.3

Given the compound "CN(C)CCNC(=O)/C(=C/c1cccc([N+](=O)[O-])c1)NC(=O)c1ccccc1" , write its reported inhibition.
3.86

Return reported inhibition. Input compound: "CN(Cc1ccccc1)Cc1ccccc1F"
3.28

State its inhibition: "O=c1cc(-c2ccccc2)[nH]c2cc(F)ccc12"
70.7

Fill in inhibition for record CCCOC(=O)c1[nH]c2c(c1C)C(=O)CC(c1cc(OC)c(OC)c(OC)c1)C2 (stereo unspecified)
17.1

Answer with the recorded inhibition for the compound listed here: "Cc1ccc(C2=NN(C)c3nc4ccccc4n3C2)cc1"
56.8

Please report the measured inhibition for "CCCN(CCC)S(=O)(=O)c1ccc(C(=O)NNC(=O)c2cc(OC)c(OC)c(OC)c2)cc1"
-3.01

Identify measured inhibition associated with "COC(=O)c1ccc(Cc2ccccc2)o1"
-0.12

Return value of inhibition for input "CC(C)(CCl)C(=O)Nc1ccc(Sc2ccc(F)cc2)cc1" , no commentary.
-2.48

Give the reported value of inhibition for this record: "Cc1ccc(O)c(CNc2nc3ccccc3n2C)c1"
1.4

Given "CCCCCCn1c(CN2CCCCC2)nc2c1c(=O)n(C)c(=O)n2C" , respond with its inhibition.
-2.26

Read off the recorded inhibition for O=C(Nc1ccccc1Cl)/C(Cl)=C(\Cl)S(=O)c1ccccc1 (stereo unspecified)
102

Give the reported value of inhibition for this record: CC1C(=O)NC(=O)C1c1ccccc1 (stereo unspecified)
-4.47

Quote inhibition reported for "COc1ccc(C(=O)CN(C(=O)c2ccc(Cl)cc2)N2C(=O)c3ccccc3C2=O)cc1" please.
0

Identify inhibition associated with the compound "NS(=O)(=O)c1ccc(NC(=O)COC(=O)c2ccc(Cl)nc2)cc1"
0.7

Please report inhibition for the following compound: "Cc1ccc(NC(=O)CC(=O)Nc2ccc(C)cc2)cc1"
-3.42

Please supply the value of reported inhibition for the item "CCOC(=O)NC(=O)/C(C#N)=C\c1ccccc1"
1.65

Tell us which inhibition value is on record for CC(NC(=O)Nc1ccccc1)C(c1cccs1)N1CCN(c2ccccc2)CC1 (stereo unspecified)
-1.45

Query inhibition for CCOC(=O)CSC1=C(C#N)C(c2sccc2C)CC(=O)N1 (stereo unspecified)
83.5

Look up inhibition of "CC(C)(C)NC(=O)COC(=O)c1cc(Br)ccc1Cl" and report it.
-5.58

Indicate its recorded inhibition; the compound in question is "CC1(C)CC(=O)C=C(N2CCCC2)C1"
-0.55
